Tested on: SF-268
Assay: Growth inhibition of human SF268 cells at 1 uM after 48 hrs by sulforhodamine B assay
Assay type: functional, cell-based
The source made the active and inactive calls. The rule behind the calls is not given here.
Outcome field: choose from y = active, n = inactive

See these solved cases before continuing.
INSERT INTO results (molecule, discrete_label) VALUES
  ('Nc1ncnc2c1N=C1c3ccccc3CCC1C(c1ccc(Cl)cc1)N2 (stereo unspecified)', 'y'),
  ('Nc1nc(N)c2c(n1)NC(c1ccc(F)cc1)C1CCc3ccccc3C1=N2 (stereo unspecified)', 'n'),
  ('Nc1nc(N)c2c(n1)NC(c1ccccc1)C1CCc3ccccc3C1=N2 (stereo unspecified)', 'n'),
  ('Nc1ncnc2c1N=C1c3ccccc3CCC1C(c1ccc(F)cc1)N2 (stereo unspecified)', 'y'),
  ('Nc1nc(N)c2c(n1)NC(c1ccc(Cl)cc1)C1CCc3ccccc3C1=N2 (stereo unspecified)', 'n');

# input for lookup
What did this assay record as the result for Nc1ncnc2c1N=C1c3ccccc3CCC1C(c1ccccc1)N2 (stereo unspecified) ? y

---

System: T47D
Assay: Growth inhibition of human T47D cells at 1 uM after 48 hrs by sulforhodamine B assay
Assay type: functional, cell-based
Active and inactive are the calls of the source. The rule behind the calls is not given here.
Outcome field: choose from active, inactive

INSERT INTO results (compound, discrete_label) VALUES
  ('Nc1ncnc2c1N=C1c3ccccc3CCC1C(c1ccc(Cl)cc1)N2 (stereo unspecified)', 'active');

What did this assay record as the result for Nc1nc(N)c2c(n1)NC(c1ccc(Cl)cc1)C1CCc3ccccc3C1=N2 (stereo unspecified) ? inactive

What did this assay record as the result for Nc1ncnc2c1N=C1c3ccccc3CCC1C(c1ccc(F)cc1)N2 (stereo unspecified) ? active

What did this assay record as the result for Nc1nc(N)c2c(n1)NC(c1ccc(F)cc1)C1CCc3ccccc3C1=N2 (stereo unspecified) ? inactive

What did this assay record as the result for Nc1ncnc2c1N=C1c3ccccc3CCC1C(c1ccccc1)N2 (stereo unspecified) ? active

What did this assay record as the result for Nc1nc(N)c2c(n1)NC(c1ccccc1)C1CCc3ccccc3C1=N2 (stereo unspecified) ? inactive

---

Tested on: A498
Test: Growth inhibition of human A498 cells at 1 uM after 48 hrs by sulforhodamine B assay
Format: functional, cell-based
The source made the active and inactive calls. The rule behind the calls is not given here.
Outcome field: choose from active, inactive

See these solved cases before continuing.
INSERT INTO measurements (compound, discrete_label) VALUES
  ('Nc1nc(N)c2c(n1)NC(c1ccccc1)C1CCc3ccccc3C1=N2 (stereo unspecified)', 'inactive'),
  ('Nc1ncnc2c1N=C1c3ccccc3CCC1C(c1ccc(F)cc1)N2 (stereo unspecified)', 'active'),
  ('Nc1ncnc2c1N=C1c3ccccc3CCC1C(c1ccc(Cl)cc1)N2 (stereo unspecified)', 'active'),
  ('Nc1nc(N)c2c(n1)NC(c1ccc(F)cc1)C1CCc3ccccc3C1=N2 (stereo unspecified)', 'inactive');

What did this assay record as the result for Nc1nc(N)c2c(n1)NC(c1ccc(Cl)cc1)C1CCc3ccccc3C1=N2 (stereo unspecified) ? inactive

What did this assay record as the result for Nc1ncnc2c1N=C1c3ccccc3CCC1C(c1ccccc1)N2 (stereo unspecified) ? active

---

Tested on: COLO 205
Experiment: Growth inhibition of human COLO205 cells at 1 uM after 48 hrs by sulforhodamine B assay
Format: functional, cell-based
Activity calls are given as the source filed them. The rule behind the calls is not given here.
Outcome field: choose from 1 (active), 0 (inactive)

See these solved cases before continuing.
INSERT INTO assay_data (compound, discrete_label) VALUES
  ('Nc1nc(N)c2c(n1)NC(c1ccccc1)C1CCc3ccccc3C1=N2 (stereo unspecified)', 0),
  ('Nc1ncnc2c1N=C1c3ccccc3CCC1C(c1ccc(Cl)cc1)N2 (stereo unspecified)', 1),
  ('Nc1nc(N)c2c(n1)NC(c1ccc(Cl)cc1)C1CCc3ccccc3C1=N2 (stereo unspecified)', 0);

What did this assay record as the result for Nc1ncnc2c1N=C1c3ccccc3CCC1C(c1ccc(F)cc1)N2 (stereo unspecified) ? 1

What did this assay record as the result for Nc1ncnc2c1N=C1c3ccccc3CCC1C(c1ccccc1)N2 (stereo unspecified) ? 1

What did this assay record as the result for Nc1nc(N)c2c(n1)NC(c1ccc(F)cc1)C1CCc3ccccc3C1=N2 (stereo unspecified) ? 0

---

Test system: NCI-H460
Experiment: Growth inhibition of human NCI-H460 cells at 1 uM after 48 hrs by sulforhodamine B assay
Type: functional, cell-based
Active and inactive are the calls of the source. The rule behind the calls is not given here.
Outcome field: choose from class 1 for active, class 0 for inactive

See these solved cases before continuing.
INSERT INTO measurements (compound, discrete_label) VALUES
  ('Nc1nc(N)c2c(n1)NC(c1ccc(Cl)cc1)C1CCc3ccccc3C1=N2 (stereo unspecified)', 'class 0'),
  ('Nc1nc(N)c2c(n1)NC(c1ccccc1)C1CCc3ccccc3C1=N2 (stereo unspecified)', 'class 0');

What did this assay record as the result for Nc1ncnc2c1N=C1c3ccccc3CCC1C(c1ccc(Cl)cc1)N2 (stereo unspecified) ? class 1

What did this assay record as the result for Nc1ncnc2c1N=C1c3ccccc3CCC1C(c1ccccc1)N2 (stereo unspecified) ? class 1

What did this assay record as the result for Nc1nc(N)c2c(n1)NC(c1ccc(F)cc1)C1CCc3ccccc3C1=N2 (stereo unspecified) ? class 0

What did this assay record as the result for Nc1ncnc2c1N=C1c3ccccc3CCC1C(c1ccc(F)cc1)N2 (stereo unspecified) ? class 1

---

System: M14
Experiment: Growth inhibition of human M14 cells at 1 uM after 48 hrs by sulforhodamine B assay
Assay type: functional, cell-based
Active and inactive are the calls of the source. The rule behind the calls is not given here.
Measured Metric: growth inhibition (GI)

INSERT INTO results (compound, measured_metric, measured_result) VALUES
  ('Nc1nc(N)c2c(n1)NC(c1ccccc1)C1CCc3ccccc3C1=N2 (stereo unspecified)', 'growth inhibition (GI)', 'inactive'),
  ('Nc1ncnc2c1N=C1c3ccccc3CCC1C(c1ccccc1)N2 (stereo unspecified)', 'growth inhibition (GI)', 'Active'),
  ('Nc1ncnc2c1N=C1c3ccccc3CCC1C(c1ccc(Cl)cc1)N2 (stereo unspecified)', 'growth inhibition (GI)', 'Active'),
  ('Nc1nc(N)c2c(n1)NC(c1ccc(F)cc1)C1CCc3ccccc3C1=N2 (stereo unspecified)', 'growth inhibition (GI)', 'inactive'),
  ('Nc1nc(N)c2c(n1)NC(c1ccc(Cl)cc1)C1CCc3ccccc3C1=N2 (stereo unspecified)', 'growth inhibition (GI)', 'inactive');

Proceeding to the next compound to report its growth inhibition (GI).
Please fill in: growth inhibition (GI) reported for Nc1ncnc2c1N=C1c3ccccc3CCC1C(c1ccc(F)cc1)N2 (stereo unspecified) = Active

---

Test system: MDA-MB-435
Test: Growth inhibition of human MDA-MB-435 cells at 1 uM after 48 hrs by sulforhodamine B assay
Format: functional, cell-based
Calls of active or inactive are those of the source. The rule behind the calls is not given here.
Outcome field: choose from YES = active, NO = inactive

See these solved cases before continuing.
INSERT INTO results (compound, discrete_label) VALUES
  ('Nc1nc(N)c2c(n1)NC(c1ccccc1)C1CCc3ccccc3C1=N2 (stereo unspecified)', 'NO'),
  ('Nc1ncnc2c1N=C1c3ccccc3CCC1C(c1ccccc1)N2 (stereo unspecified)', 'YES'),
  ('Nc1ncnc2c1N=C1c3ccccc3CCC1C(c1ccc(F)cc1)N2 (stereo unspecified)', 'YES'),
  ('Nc1nc(N)c2c(n1)NC(c1ccc(F)cc1)C1CCc3ccccc3C1=N2 (stereo unspecified)', 'NO'),
  ('Nc1ncnc2c1N=C1c3ccccc3CCC1C(c1ccc(Cl)cc1)N2 (stereo unspecified)', 'YES');

# input for lookup
What did this assay record as the result for Nc1nc(N)c2c(n1)NC(c1ccc(Cl)cc1)C1CCc3ccccc3C1=N2 (stereo unspecified) ? NO

---

System: SK-MEL-2
Assay: Growth inhibition of human SK-MEL-2 cells at 1 uM after 48 hrs by sulforhodamine B assay
Assay type: functional, cell-based
Active and inactive are the calls of the source. The rule behind the calls is not given here.
Outcome field: choose from active, inactive

What did this assay record as the result for Nc1nc(N)c2c(n1)NC(c1ccccc1)C1CCc3ccccc3C1=N2 (stereo unspecified) ? inactive

What did this assay record as the result for Nc1nc(N)c2c(n1)NC(c1ccc(F)cc1)C1CCc3ccccc3C1=N2 (stereo unspecified) ? inactive

What did this assay record as the result for Nc1ncnc2c1N=C1c3ccccc3CCC1C(c1ccccc1)N2 (stereo unspecified) ? active

What did this assay record as the result for Nc1ncnc2c1N=C1c3ccccc3CCC1C(c1ccc(Cl)cc1)N2 (stereo unspecified) ? active

What did this assay record as the result for Nc1nc(N)c2c(n1)NC(c1ccc(Cl)cc1)C1CCc3ccccc3C1=N2 (stereo unspecified) ? inactive

What did this assay record as the result for Nc1ncnc2c1N=C1c3ccccc3CCC1C(c1ccc(F)cc1)N2 (stereo unspecified) ? active

---

System: CCRF-CEM
Assay: Growth inhibition of human CCRF-CEM cells at 1 uM after 48 hrs by sulforhodamine B assay
Assay type: functional, cell-based
Active and inactive are the calls of the source. The rule behind the calls is not given here.
Outcome field: choose from active, inactive

See these solved cases before continuing.
INSERT INTO measurements (compound, discrete_label) VALUES
  ('Nc1nc(N)c2c(n1)NC(c1ccc(Cl)cc1)C1CCc3ccccc3C1=N2 (stereo unspecified)', 'inactive'),
  ('Nc1nc(N)c2c(n1)NC(c1ccc(F)cc1)C1CCc3ccccc3C1=N2 (stereo unspecified)', 'inactive'),
  ('Nc1ncnc2c1N=C1c3ccccc3CCC1C(c1ccccc1)N2 (stereo unspecified)', 'active'),
  ('Nc1ncnc2c1N=C1c3ccccc3CCC1C(c1ccc(Cl)cc1)N2 (stereo unspecified)', 'active'),
  ('Nc1nc(N)c2c(n1)NC(c1ccccc1)C1CCc3ccccc3C1=N2 (stereo unspecified)', 'inactive');

# input for lookup
What did this assay record as the result for Nc1ncnc2c1N=C1c3ccccc3CCC1C(c1ccc(F)cc1)N2 (stereo unspecified) ? active
